study system: Pseudomonas sp. acetylpolyamine amidohydrolase ApaH (Pseudomonas sp.)
procedure details: enzyme kinetics with substrate in
assay readout: Ki (µM)
Answer format: numeric, µM implied, no suffix.

Data request: Return Ki for the following binder: QPKK [p53-peptide QPKKac]
Data returned: 122
